For each record, write down the corresponding pIC50.
# assay-system: UniProt:O14744
# test-summary: Enzymatic inhibitory activity against PRMT5-MTA (AlphaScreen)
# Type: biochemical
# experimental-context: read-out: IC50
By convention, pIC50 is the negative base-10 log of a molar concentration.

What does the data say about its pIC50? Entry: "Cc1cc2cc(C(=O)N(Cc3ccc(C(F)(F)F)cn3)N(C)c3ncccc3OC(F)F)ccc2nc1N"
8.85

What does the data say about its pIC50? Entry: "CN(c1ncccn1)N(Cc1ccc(C(F)(F)F)cn1)C(=O)c1ccc2nc(N)c3cnccc3c2c1"
8.96

What does the data say about its pIC50? Entry: "Cc1cc2cc(C(=O)N(Cc3ccc(C(F)(F)F)cn3)N(C)c3ccccc3F)ccc2nc1N"
8.77

What does the data say about its pIC50? Entry: "Cc1cc2cc(C(=O)N(Cc3ccc(C4CCOCC4)cn3)N(C)c3ncccn3)ccc2nc1N"
8.15

* * *

# Tested on: HCT116 MTAP KO cells
# test-summary: Inhibitory activity against cell proliferation (CellTiter Glo, 6 days), HCT116 MTAP KO
# Format: cell-based
# experimental-context: ratio of IC50 HCT116-WT / HCT116 MTAP KO
quantity-name: Selectivity HCT 116-WT/ HCT116 MTAP KO
// keep it numeric: no unit symbol after the value

What does the data say about its Selectivity HCT 116-WT/ HCT116 MTAP KO? Entry: COC1(C)CN(C(=O)c2cc3c(cc2C)nc(N)c2cnn(C)c23)N(c2ncccc2F)C1 (centres unmarked)
26.75

What does the data say about its Selectivity HCT 116-WT/ HCT116 MTAP KO? Entry: "Cc1cc2cc(C(=O)N(Cc3ccc(C4CCC4)cn3)N(C)c3ncccn3)ccc2nc1N"
13.04

What does the data say about its Selectivity HCT 116-WT/ HCT116 MTAP KO? Entry: Cc1cc2nc(N)c3cnn(C)c3c2cc1C(=O)N1CC(C)CN1c1ncc(-c2scnc2C)cc1F (centres unmarked)
43.81

What does the data say about its Selectivity HCT 116-WT/ HCT116 MTAP KO? Entry: "Cn1ncc2c(N)nc3cc(Cl)c(C(=O)N4CC5(CC5)CN4c4ncc(Cl)cc4F)cc3c21"
39.88

What does the data say about its Selectivity HCT 116-WT/ HCT116 MTAP KO? Entry: Cc1cc2nc(N)c3cnn(C)c3c2cc1C(=O)N1CC(C)CN1c1cccc(Cl)c1F (centres unmarked)
35.34

What does the data say about its Selectivity HCT 116-WT/ HCT116 MTAP KO? Entry: Cc1cc2cc(C(=O)N(Cc3ccc(-c4cnc5c(cnn5C)c4)cn3)N(C)c3ncccn3)ccc2nc1N [Example 198]
26.09

What does the data say about its Selectivity HCT 116-WT/ HCT116 MTAP KO? Entry: "Cc1cc2cc(C(=O)N(Cc3ccc(-c4cnn(C(F)(F)F)c4)cn3)N(C)c3ncccn3)ccc2nc1N"
42.00

What does the data say about its Selectivity HCT 116-WT/ HCT116 MTAP KO? Entry: "Cc1cc2cc(C(=O)N(Cc3ccc(C(F)(F)F)cn3)N(C)c3ncc(F)cn3)ccc2nc1N"
35.14

* * *

# assay-system: PRMT5-MTA (Homo sapiens, UniProt O14744)
# Sequence (O14744 whole entry): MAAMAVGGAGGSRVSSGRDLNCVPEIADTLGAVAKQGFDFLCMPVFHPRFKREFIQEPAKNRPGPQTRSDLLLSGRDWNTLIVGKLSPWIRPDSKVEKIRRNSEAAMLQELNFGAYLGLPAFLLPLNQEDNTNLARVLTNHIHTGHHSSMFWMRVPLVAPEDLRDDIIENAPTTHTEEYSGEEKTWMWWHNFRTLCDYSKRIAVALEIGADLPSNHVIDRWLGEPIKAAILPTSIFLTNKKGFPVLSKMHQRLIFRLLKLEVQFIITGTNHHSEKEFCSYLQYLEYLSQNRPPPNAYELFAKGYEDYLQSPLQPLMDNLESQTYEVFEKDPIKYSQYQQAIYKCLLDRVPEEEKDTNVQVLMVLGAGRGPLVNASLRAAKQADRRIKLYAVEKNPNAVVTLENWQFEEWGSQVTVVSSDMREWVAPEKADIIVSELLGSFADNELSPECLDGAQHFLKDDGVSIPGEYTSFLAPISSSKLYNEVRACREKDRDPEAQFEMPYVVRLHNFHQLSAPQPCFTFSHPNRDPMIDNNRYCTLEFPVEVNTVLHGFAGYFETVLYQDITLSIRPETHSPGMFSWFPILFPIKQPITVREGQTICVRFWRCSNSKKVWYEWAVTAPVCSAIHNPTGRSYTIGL
# Sequence (Q9BQA1 whole entry partner): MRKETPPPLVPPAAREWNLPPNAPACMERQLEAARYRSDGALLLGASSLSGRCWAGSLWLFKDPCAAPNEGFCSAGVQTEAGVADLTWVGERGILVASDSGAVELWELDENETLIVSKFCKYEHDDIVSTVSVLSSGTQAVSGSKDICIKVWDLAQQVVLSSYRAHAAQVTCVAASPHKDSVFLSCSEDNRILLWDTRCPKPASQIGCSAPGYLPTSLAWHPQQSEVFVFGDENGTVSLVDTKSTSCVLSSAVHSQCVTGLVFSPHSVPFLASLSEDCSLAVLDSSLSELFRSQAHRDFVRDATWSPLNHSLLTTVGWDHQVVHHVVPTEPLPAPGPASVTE
# test-summary: Enzymatic inhibitory activity against PRMT5-MTA (AlphaScreen)
# Type: biochemical
# experimental-context: read-out: IC50
# Experimental: The AlphaScreen method was used to detect the enzymatic inhibitory activity of the compounds against PRMT5-MTA. 1 x Methyltransferase assay buffer IV (signalchem) was prepared as a solution for diluting each component for the enzymatic reaction. […] The signal values were detected for the well plate through the Alpha method using an Envision multifunctional microplate-reader, and the IC50 values for inhibition of the compounds on PRMT5/MET50 enzyme activity were calculated in Xlfit 5.0 software. […]
For each record, write down the corresponding IC50.
Express the result in nM but write the number alone.

What does the data say about its IC50? Entry: Cc1cc2nc(N)c3c(cnn3C)c2cc1C(=O)N1CCCN1c1ncccc1F [Example 501]
4.4

What does the data say about its IC50? Entry: Cc1cc2nc(N)c3cnn(C)c3c2cc1C(=O)N1CCCN1c1ccc(C(F)(F)F)cc1 [Example 377]
3.1

What does the data say about its IC50? Entry: Cc1cc2cc(C(=O)N(Cc3ccc(-c4ccccc4)cn3)N(C)c3ncccn3)ccc2nc1N [Example 202]
2.9

What does the data say about its IC50? Entry: Cn1ncc2c(N)nc3cc(Cl)c(C(=O)N4CC(F)(F)CN4c4ncc(Br)cc4F)cc3c21 [Example 456]
7
